// data source = patent US20030068675

target.under.test: ZFP SBS#727 (synthetic, UniProt P08047)
Sequence (P08047 other isoform, or with tags, fused parts or gaps): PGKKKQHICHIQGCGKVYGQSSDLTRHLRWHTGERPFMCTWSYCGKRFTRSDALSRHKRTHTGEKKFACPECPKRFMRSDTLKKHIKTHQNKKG
experimental.protocol: EMSA
study.conditions: tags: MBP fusion
endpoint.label: pKd
pKd is a log-scale quantity: -log10 of the concentration expressed in molar.

Exercise: Quick one: pKd of GCGGTGGCTC (dsDNA) DNA 1: GCGGTGGCTC DNA 2: GAGCCACCGC ?
Key: 10.00
